- experimental_target: Human factor D (Homo sapiens (Human), UniProt P00746)
- Sequence (P00746 26-253): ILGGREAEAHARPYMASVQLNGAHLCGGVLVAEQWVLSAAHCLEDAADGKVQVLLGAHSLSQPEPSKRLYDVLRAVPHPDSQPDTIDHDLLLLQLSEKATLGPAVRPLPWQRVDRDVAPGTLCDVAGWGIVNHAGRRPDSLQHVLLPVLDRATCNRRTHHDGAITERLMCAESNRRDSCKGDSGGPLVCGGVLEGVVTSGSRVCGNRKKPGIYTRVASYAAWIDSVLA
- assay_text: Human Factor D Assay
- Format: biochemical
- applied_conditions: human factor D 80 nM, substrate Z-L-Lys-SBzl, DTNB

{"molecule": "COc1ncc(-c2ccc3c(c2)c(C(C)=O)cn3CC(=O)N2[C@@H]3C[C@@H]3C[C@H]2C(=O)Nc2cccc(Br)n2)cn1", "experimental_target": "Human factor D (Homo sapiens (Human), UniProt P00746)", "IC50": "< 1 µM"}
{"molecule": "CC(=O)c1cn(CC(=O)N2C[C@H](F)C[C@H]2C(=O)N[C@H]2CCCC[C@@H]2OCc2ccccc2)c2ccc(-c3ccnnc3)cc12", "experimental_target": "Human factor D (Homo sapiens (Human), UniProt P00746)", "IC50": "> 10 µM"}
{"molecule": "NC(=O)c1nn(CC(=O)N2C[C@H](F)C[C@H]2C(=O)Nc2cccc(Br)n2)c2ccc(-c3cncnc3)cc12", "experimental_target": "Human factor D (Homo sapiens (Human), UniProt P00746)", "IC50": "< 1 µM"}
{"molecule": "NC(=O)c1nn(CC(=O)N2[C@@H]3C[C@@H]3C[C@H]2C(=O)Nc2cccc(OC(F)(F)F)c2F)c2ccc(-c3cncnc3)cc12", "experimental_target": "Human factor D (Homo sapiens (Human), UniProt P00746)", "IC50": "< 1 µM"}
{"molecule": "CC(=O)Nc1ncc(-c2ccc3c(c2)c(C(C)=O)cn3CC(=O)N2C[C@H](F)C[C@H]2C(=O)Nc2cccc(-c3ccccc3Cl)c2F)cn1", "experimental_target": "Human factor D (Homo sapiens (Human), UniProt P00746)", "IC50": "< 1 µM"}
{"molecule": "CC(=O)c1cn(CC(=O)N2C[C@H](F)C[C@H]2C(=O)Nc2cccc(O)n2)c2ccc(-c3ccnnc3)cc12", "experimental_target": "Human factor D (Homo sapiens (Human), UniProt P00746)", "IC50": "> 10 µM"}
{"molecule": "CC(=O)c1cn(CC(=O)N2C[C@H](F)C[C@H]2C(=O)Nc2cccc(-c3cc(F)c(F)cc3Cl)c2F)c2ccc(-c3cnc(C)nc3)cc12", "experimental_target": "Human factor D (Homo sapiens (Human), UniProt P00746)", "IC50": "< 1 µM"}
{"molecule": "CC1(C)Cc2ccc(NC(=O)[C@@H]3C[C@@H](F)CN3C(=O)Cn3nc(C(N)=O)c4cc(-c5ccnnc5)ccc43)cc2O1", "experimental_target": "Human factor D (Homo sapiens (Human), UniProt P00746)", "IC50": "< 1 µM"}
{"molecule": "Cn1ccc(N2CCC(NC(=O)[C@@H]3C[C@@H](F)CN3C(=O)Cn3nc(C(N)=O)c4cc(-c5ccnnc5)ccc43)C2=O)n1 (stereo partly shown)", "experimental_target": "Human factor D (Homo sapiens (Human), UniProt P00746)", "IC50": "> 10 µM"}
{"molecule": "NC(=O)c1nn(CC(=O)N2[C@@H]3C[C@@H]3C[C@H]2C(=O)Nc2cccc(Br)n2)c2ccc(-c3cnc(N4CCCC4)nc3)cc12", "experimental_target": "Human factor D (Homo sapiens (Human), UniProt P00746)", "IC50": "< 1 µM"}
{"molecule": "CC(=O)c1cn(CC(=O)N2C[C@H](F)C[C@H]2C(=O)Nc2cncc(Cl)c2)c2ccc(-c3ccnnc3)cc12", "experimental_target": "Human factor D (Homo sapiens (Human), UniProt P00746)", "IC50": "< 1 µM"}
{"molecule": "CC(=O)c1cn(CC(=O)N2C[C@H](F)C[C@H]2C(=O)Nc2cccc(-c3ccccc3Cl)c2F)c2ccc(N3CCN(c4ncccn4)CC3)cc12", "experimental_target": "Human factor D (Homo sapiens (Human), UniProt P00746)", "IC50": "< 1 µM"}
{"molecule": "CC(=O)c1cn(CC(=O)N2C[C@H](F)C[C@H]2C(=O)Nc2nc(-c3cccc(Cl)c3)ns2)c2ccc(-c3ccnnc3)cc12", "experimental_target": "Human factor D (Homo sapiens (Human), UniProt P00746)", "IC50": "> 10 µM"}
{"molecule": "NC(=O)c1nn(CC(=O)N2C[C@H](F)C[C@H]2C(=O)Nc2noc3cc(C(F)(F)F)ccc23)c2ccc(-c3ccnnc3)cc12", "experimental_target": "Human factor D (Homo sapiens (Human), UniProt P00746)", "IC50": "> 10 µM"}
{"molecule": "NC(=O)c1nn(CC(=O)N2C[C@H](F)C[C@H]2C(=O)NCc2nc3ccccc3s2)c2ccc(-c3ccnnc3)cc12", "experimental_target": "Human factor D (Homo sapiens (Human), UniProt P00746)", "IC50": "> 10 µM"}
{"molecule": "CC(=O)c1cn(CC(=O)N2C[C@H](F)C[C@H]2C(=O)Nc2cccc(-c3ccccc3Cl)c2F)c2ccc(-c3cnc(N4CCCC4)nc3)cc12", "experimental_target": "Human factor D (Homo sapiens (Human), UniProt P00746)", "IC50": "< 1 µM"}
